Would you kindly list TL1A Binding Level (Late) for each of these binders?
Study target: T1, human TL1A extracellular domain with N-terminal HIS and FLAG tag (human, UniProt O95150 72-251)
T1 construct: whole entry named. ~70 kDa fraction purified by gel filtration
T1 sequence: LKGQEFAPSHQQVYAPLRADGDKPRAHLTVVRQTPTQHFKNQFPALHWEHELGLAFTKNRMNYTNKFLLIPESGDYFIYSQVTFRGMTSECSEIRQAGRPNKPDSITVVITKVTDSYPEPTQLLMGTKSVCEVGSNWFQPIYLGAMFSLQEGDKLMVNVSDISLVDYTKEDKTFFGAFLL
Assay details: SPR run 1; purified antibody on Protein A; TL1A 10 ug/mL; timepoint 590
The reply should be a number in RU, with the unit left off.

Prompt line: What value of TL1A Binding Level (Late) has been reported for the following binder? 320-190 (antibody, human IgG1, name in Kabat numbering, V domains shown, human IgG1, lambda) VH: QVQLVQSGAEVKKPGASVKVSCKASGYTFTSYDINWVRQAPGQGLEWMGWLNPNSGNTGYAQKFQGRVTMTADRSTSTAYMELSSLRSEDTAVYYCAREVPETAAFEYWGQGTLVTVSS VL: QSVLTQPPSVSGAPGQRVTISCTSSSSDIGAGLGVHWYQQLPGTAPKLLIEGYYNRPSGVPDRFSGSKSGTSASLTITGLWPEDEGDYYCQSYDGTLSALFGGGTKLTVLG
Response line: 113

Prompt line: Entry 320-189 (antibody, human IgG1, name in Kabat numbering, V domains shown, human IgG1, lambda) VH: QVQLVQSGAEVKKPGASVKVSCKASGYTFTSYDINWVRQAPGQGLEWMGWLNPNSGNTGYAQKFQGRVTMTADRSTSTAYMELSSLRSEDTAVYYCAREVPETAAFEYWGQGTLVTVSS VL: QSVLTQPPSVSGAPGQRVTISCTSSSSDIGAGLGVHWYQQLPGTAPKLLIEGYYNRPSGVPDRFSGSKSGTSASLTITGLKPEDEGDYYCQSYDGTLSALFGGGTKLTVLG please
Response line: 107
